Origin of measurements: PubChem BioAssay (NCI)

# Test system: HCT-116 colon
# test: NCI-60 one-dose screen, 48 h (100 = growth as untreated, 0 = no growth, -100 = all killed)
# testContext: 10 µM unless noted
This is part of a sample that, as a whole, favours compounds with a hit. Of some 83,000 tested, about 20% had one in any assay.
Just a reminder that ties go to Condition not met: only growth strictly below 20% counts as Condition met.

Before answering, review these 3 worked examples.
>  <compoundStructureString>
Cc1nn(-c2ccccc2)c(N)c1N=C1NC(=O)/C(=C/c2ccc(Br)cc2)S1

>  <qualitativeLabel>
Condition not met

$$$$
>  <compoundStructureString>
COc1ccc(C(=O)Cn2c(C(=O)c3ccc(OC)cc3)nc3ccccc32)cc1

>  <qualitativeLabel>
Condition met

$$$$
>  <compoundStructureString>
Cc1c2cccnc2c(C)c2c1c1cc(CO)ccc1n2C

>  <qualitativeLabel>
Condition met

$$$$

Query block: I'd appreciate it if you could check whether Cc1ccnc(Nc2ccc([N+](=O)[O-])c(NCCN3CCOCC3)n2)c1 has growth smaller than 20%.
Result block: Condition met

----------
# Test system: OVCAR-8 ovarian
# test: NCI-60 one-dose screen, 48 h
# testContext: 10 µM unless noted
This is part of a sample that, as a whole, favours compounds with a hit. Of some 83,000 tested, about 20% had one in any assay. Active and inactive are the calls of the source. The calls were made as follows: active = growth percent below 10; inactive = the rest.
Allowed answers: active, inactive

Before answering, review these 5 worked examples.
>  <molecule>
Cc1ccc(S(=O)(=O)c2nc(-c3ccccc3)oc2Sc2nc3ccccc3s2)cc1

>  <qualitativeLabel>
inactive

$$$$
>  <molecule>
CCN(CC)CCCN1C(=O)c2c(c(C)c3c(oc4ccc(OC)cc43)c2C)C1=O

>  <qualitativeLabel>
inactive

$$$$
>  <molecule>
NS(=O)(=O)c1ccc(-c2cc(-c3nnc(SCC(=O)Nc4ccc(C(=O)/C=C/c5ccc(Cl)cc5)cc4)n3-c3ccccc3)c3ccccc3n2)cc1

>  <qualitativeLabel>
inactive

$$$$
>  <molecule>
CN(Cc1cc(Br)cc(Br)c1O)Cc1cc(Br)cc(Br)c1O

>  <qualitativeLabel>
inactive

$$$$
>  <molecule>
CN(C)CCN1C(=O)c2cccc3c(/C=C/CN4C(=O)c5cccc6cccc(c56)C4=O)ccc(c23)C1=O

>  <qualitativeLabel>
active

$$$$

Query block: I'd appreciate the recorded outcome for CCN1CCN(C(=O)[C@]23CC[C@@H](C)[C@H](C)[C@@H]2C2=CC[C@@H]4[C@@]5(C)C/C(=C/c6cccnc6)C(=O)C(C)(C)[C@@H]5CC[C@@]4(C)[C@]2(C)CC3)CC1 from this test.
Result block: inactive

Query block: I'd appreciate the recorded outcome for CC(C)CCN(CCC(C)C)CC(O)c1cc2c(c3ccccc13)CCCC2 (stereo not drawn) from this test.
Result block: inactive

Query block: I'd appreciate the recorded outcome for C/C(=N\O)c1ccc(NC(=O)CSc2nnc(-c3cc(-c4ccc(S(N)(=O)=O)cc4)nc4ccccc34)n2-c2ccccc2)cc1 from this test.
Result block: inactive

----------
# Tested on: SW-620 colon
# test: NCI-60 one-dose screen, 48 h
# testContext: 10 µM unless noted
About 83,000 compounds went through this panel and 20% of them were active in at least one assay; those are over-represented in the sample as a whole. Calls of active or inactive are those of the source. How the source made its calls: active means growth percent below 10; inactive means the rest.
Allowed answers: label 1 = active, label 0 = inactive

>  <molecule>
CC1(C)NCCC[C@]2(C)[C@H]3CC[C@H]4[C@H]5[C@H](C(=O)/C=C/c6cccnc6)CCC[C@]5(CO)CC[C@@]4(C)[C@]3(C)CC[C@@H]12

>  <qualitativeLabel>
label 1

$$$$

Query block: I'd appreciate the recorded outcome for O=[N+]([O-])c1cc(NS(=O)(=O)c2ccccc2)ccc1NS(=O)(=O)c1ccccc1 from this test.
Result block: label 0

Query block: I'd appreciate the recorded outcome for O=C(CSc1nc(-c2ccccc2)cc(=O)[nH]1)Nc1nc(-c2ccccc2)cs1 from this test.
Result block: label 0

Query block: I'd appreciate the recorded outcome for O=c1cc(-c2ccccc2)[nH]c2ncc(-c3ccc(F)cc3)n12 from this test.
Result block: label 0

Query block: I'd appreciate the recorded outcome for Oc1c(CN2CCC(N3CCCCC3)CC2)cc(Cc2cc(CN3CCC(N4CCCCC4)CC3)c(O)c3ncccc23)c2cccnc12 from this test.
Result block: label 0

Query block: I'd appreciate the recorded outcome for O=C(/C=C/c1ccccc1)c1ccc(Nc2nc(Nc3ccc(F)cc3)nc(Nc3ccc(Cl)cc3)n2)cc1 from this test.
Result block: label 0

Query block: I'd appreciate the recorded outcome for CCCCNc1nnc2n(Cc3ccccc3)c(=O)c3c4c(sc3n12)CCCC4 from this test.
Result block: label 0

Query block: I'd appreciate the recorded outcome for C/C(=N\O)c1ccc(NC(=O)CSc2nnc(-c3cc(-c4ccc(S(N)(=O)=O)cc4)nc4ccccc34)n2-c2ccccc2)cc1 from this test.
Result block: label 0

Query block: I'd appreciate the recorded outcome for O=C(NNC(=O)c1ccc(NC(=O)c2ccccn2)cc1)Nc1ccc2ccccc2c1 from this test.
Result block: label 0

Query block: I'd appreciate the recorded outcome for CCO/C=N/C1=C(C#N)C(c2ccc(F)cc2)c2sc3c(F)cccc3c2O1 (stereo not drawn) from this test.
Result block: label 0

Query block: I'd appreciate the recorded outcome for CCOC(=O)C(Cc1ccc(OC)cc1)C(=O)OCC from this test.
Result block: label 0

Query block: I'd appreciate the recorded outcome for N#Cc1nc(-c2ccccc2)oc1S(=O)(=O)N1CCN(c2ccc(F)cc2)CC1 from this test.
Result block: label 0

Query block: I'd appreciate the recorded outcome for CN1CCN(Cc2ccc(NC(=O)c3cncc(C#Cc4cnc(N)c5ccc(F)cc45)c3)cc2C(F)(F)F)CC1 from this test.
Result block: label 1

Query block: I'd appreciate the recorded outcome for C=C1C(=O)O[C@H]2[C@H]1CC/C(COC(=O)c1ccc(C(=O)O)s1)=C\CC[C@@]1(C)O[C@@H]21 from this test.
Result block: label 1

Query block: I'd appreciate the recorded outcome for NS(=O)(=O)c1ccc(NC(=O)/C(=C\c2ccc(Cl)cc2Cl)NC(=O)c2ccccc2)cc1 from this test.
Result block: label 0

Query block: I'd appreciate the recorded outcome for CCN1C(=O)N(CC)C2C1NN=c1s/c(=C\c3ccc(C(F)(F)F)cc3)c(=O)n12 (stereo not drawn) from this test.
Result block: label 0
